- Tested on: Plasmodium falciparum
- Protocol Text: Antimalarial activity against chloroquine-susceptible Plasmodium falciparum 3D7 after 72 hrs by SYBR Green-I based fluorescence assay
- Format: functional, organism-based
- Setup Conditions: 3D7, 72 h
Measured Metric: IC50 (µM)
Numbers only, in µM.

Consider the reported IC50 for these compounds:
{"Smiles Data": "O=C(/C(=C/c1ccc(Cl)cc1)Oc1ccc(/C=N/Nc2ccnc3cc(Cl)ccc23)cc1)c1ccc(Cl)cc1", "Measured Metric": "IC50", "Endpoint Value": 0.145}
{"Smiles Data": "O=C(/C(=C/c1ccoc1)Oc1ccc(/C=N/Nc2ccnc3cc(Cl)ccc23)cc1)c1ccc(Cl)cc1", "Measured Metric": "IC50", "Endpoint Value": 0.0573}

Next, consider the following compound.
# get_value(readout='IC50', item= `O=C(/C(=C/c1cccc([N+](=O)[O-])c1)Oc1ccc(/C=N/Nc2ccnc3cc(Cl)ccc23)cc1)c1ccc(Cl)cc1` )
0.128

====

- Tested on: Plasmodium falciparum
- Protocol Text: Antimalarial activity against chloroquine-susceptible Plasmodium falciparum 3D7 after 72 hrs by SYBR Green-I based fluorescence assay
- Format: functional, organism-based
- Setup Conditions: 3D7, 72 h
Task for the reader: assign each of the following molecules its reported IC50.
One number for each entry, in nM.

Consider the reported IC50 for these molecules:
{"Smiles Data": "O=C(/C(=C/c1ccc(F)cc1)Oc1ccc(/C=N/Nc2ccnc3cc(Cl)ccc23)cc1)c1ccc(Cl)cc1", "IC50, nM": 29.1}
{"Smiles Data": "O=C(/C(=C/c1ccccc1)Oc1ccc(/C=N/Nc2ccnc3cc(Cl)ccc23)cc1)c1ccc(Cl)cc1", "IC50, nM": 78.8}
{"Smiles Data": "Cc1ccc(/C=C(\\Oc2ccc(/C=N/Nc3ccnc4cc(Cl)ccc34)cc2)C(=O)c2ccc(Cl)cc2)cc1", "IC50, nM": 112}
{"Smiles Data": "COc1ccc(OC)c(/C=C(\\Oc2ccc(/C=N/Nc3ccnc4cc(Cl)ccc34)cc2)C(=O)c2ccc(Cl)cc2)c1", "IC50, nM": 250}
{"Smiles Data": "COc1ccc(/C=C(\\Oc2ccc(/C=N/Nc3ccnc4cc(Cl)ccc34)cc2)C(=O)c2ccc(Cl)cc2)cc1OC", "IC50, nM": 84}

Record IC50 for all entries; do not skip any.
1. O=C(/C(=C/c1ccc(F)cc1F)Oc1ccc(/C=N/Nc2ccnc3cc(Cl)ccc23)cc1)c1ccc(Cl)cc1
2. COc1ccc(/C=C(\Oc2ccc(/C=N/Nc3ccnc4cc(Cl)ccc34)cc2)C(=O)c2ccc(Cl)cc2)c(OC)c1OC
3. O=C(COc1ccc(/C=N/Nc2ccnc3cc(Cl)ccc23)cc1)c1ccc(Cl)cc1

139
124
36.7

====

Task for the reader: assign each of the following compounds its reported selectivity ratio.
- Protocol Text: Selectivity index, ratio of IC50 for african green monkey Vero cells to IC50 for Plasmodium falciparum
- Type: toxicity, cell-based
- Setup Conditions: read-out: Ratio IC50

Consider the reported selectivity ratio for these compounds:
{"Smiles Data": "COc1cc(OC)c(OC)cc1/C=C(\\Oc1ccc(/C=N/Nc2ccnc3cc(Cl)ccc23)cc1)C(=O)c1ccc(Cl)cc1", "Endpoint Value": 728}
{"Smiles Data": "O=C(/C(=C/c1ccccc1)Oc1ccc(/C=N/Nc2ccnc3cc(Cl)ccc23)cc1)c1ccc(Cl)cc1", "Endpoint Value": 2360}
{"Smiles Data": "O=C(/C(=C/c1cccc([N+](=O)[O-])c1)Oc1ccc(/C=N/Nc2ccnc3cc(Cl)ccc23)cc1)c1ccc(Cl)cc1", "Endpoint Value": 1340}
{"Smiles Data": "COc1ccc(/C=C(\\Oc2ccc(/C=N/Nc3ccnc4cc(Cl)ccc34)cc2)C(=O)c2ccc(Cl)cc2)cc1OC", "Endpoint Value": 1440}
{"Smiles Data": "COc1ccc(/C=C(\\Oc2ccc(/C=N/Nc3ccnc4cc(Cl)ccc34)cc2)C(=O)c2ccc(Cl)cc2)c(OC)c1OC", "Endpoint Value": 837}

Record selectivity ratio for all entries; do not skip any.
1. O=C(/C(=C/c1ccoc1)Oc1ccc(/C=N/Nc2ccnc3cc(Cl)ccc23)cc1)c1ccc(Cl)cc1
2. COc1cc(/C=C(\Oc2ccc(/C=N/Nc3ccnc4cc(Cl)ccc34)cc2)C(=O)c2ccc(Cl)cc2)cc(OC)c1OC

1. 962
2. 970
